# Tgt: UniProtKB P08684
# Assay Text: Cytochrome P450 activity inhibition, CYP3A4
# Format: in vitro ADME
# Condition Notes: 10 μM, human liver microsomes, Midazolam substrate
Kindly state CYP inhibition (% of control) 3A4 for each of the entries shown.

Data point: CCN1CCC(c2ccc(C(=C(CCCO)c3ccccc3)c3cccc(O)c3)cc2)CC1 [Compound 22ae] ; CYP inhibition (% of control) 3A4 = 81.5 % of control

For record CN1CCN(c2ccc(/C(=C(/CCCO)c3ccccc3)c3ccc([N+](=O)[O-])cc3)cc2)CC1 [Compound 18c] the listed CYP inhibition (% of control) 3A4 is 64.1 % of control

Reported CYP inhibition (% of control) 3A4 ( OCCC/C(=C(\c1ccc(Br)cc1)c1ccc(N2CCNCC2)cc1)c1ccccc1 [Compound 20a] ) = 55 % of control

CYP inhibition (% of control) 3A4 for CCN1CCN(c2ccc(/C(=C(/CCCO)c3ccccc3)c3ccc(C)cc3)cc2)CC1 [Compound 18j] is 77.6 % of control

Consider CC(C)N1CCC(c2ccc(/C(=C(/CCCO)c3ccccc3)c3cccc(O)c3)cc2)CC1 [Compound 22m] . Its measured CYP inhibition (% of control) 3A4 is 58.1 % of control

====

# Assay Text: in vivo
# Assay type: in vivo
# Condition Notes: rat, PO, 10 mg/kg
Assay Metric: AUCall (μMh)
Unit μMh implied. Number only.

The reported value for CC(C)N1CCN(c2ccc(C(=C(CCCO)c3ccccc3)c3ccc(O)cc3)cc2)CC1 [Compound 18a] in terms of AUCall is 0.81

Field AUCall (entry CC(C)N1CCC(c2ccc(/C(=C(/CCCO)c3ccccc3)c3ccc(O)cc3)cc2)C1 (racemic) [Compound 22s] ) reads 0.09

Per the records, this molecule ( Cc1ccc(/C(=C(\CCCO)c2ccccc2)c2ccc(N3CCN(C(C)C)CC3)cc2)cc1 [Compound 18b] ) has AUCall equal to 0.31

Lab note: measured AUCall of Cc1ccc(/C(=C(\CCCO)c2ccccc2)c2ccc(N3CCN(C)CC3)cc2)cc1 [Compound 18f] was 2.93

CC(C)N1CCC(c2ccc(/C(=C(/CCCO)c3ccccc3)c3cccc(O)c3)cc2)CC1 [Compound 22m] has a reported AUCall of 0.73

// AUCall lookup, molecule = CN(C)CCOc1ccc(/C(=C(/CCCO)c2ccccc2)c2ccc(O)cc2)cc1 [GSK5182, reference compound] , result: 0.68

Given item OCCC/C(=C(\c1ccc(O)cc1)c1ccc(C2CCN(C3CC3)CC2)cc1)c1ccccc1 [Compound 22i] , the value recorded as its AUCall is 2.24

The recorded AUCall for CCN1CCN(c2ccc(/C(=C(/CCCO)c3ccccc3)c3ccc(C)cc3)cc2)CC1 [Compound 18j] is 1.07

Reported AUCall of OCCC/C(=C(/c1ccc(C2CCN(C3CC3)CC2)cc1)c1cccc(O)c1)c1ccccc1 [Compound 22r] : 4.93

response.value for CC(C)N1CCN(c2ccc(/C(=C(/CCCO)c3ccccc3)c3ccc(Br)cc3)cc2)CC1 [Compound 18e] (field: AUCall) = 0.07

====

# Tgt: CYP3A4 (Homo sapiens (Human), UniProt P08684)
# Sequence (P08684 whole entry): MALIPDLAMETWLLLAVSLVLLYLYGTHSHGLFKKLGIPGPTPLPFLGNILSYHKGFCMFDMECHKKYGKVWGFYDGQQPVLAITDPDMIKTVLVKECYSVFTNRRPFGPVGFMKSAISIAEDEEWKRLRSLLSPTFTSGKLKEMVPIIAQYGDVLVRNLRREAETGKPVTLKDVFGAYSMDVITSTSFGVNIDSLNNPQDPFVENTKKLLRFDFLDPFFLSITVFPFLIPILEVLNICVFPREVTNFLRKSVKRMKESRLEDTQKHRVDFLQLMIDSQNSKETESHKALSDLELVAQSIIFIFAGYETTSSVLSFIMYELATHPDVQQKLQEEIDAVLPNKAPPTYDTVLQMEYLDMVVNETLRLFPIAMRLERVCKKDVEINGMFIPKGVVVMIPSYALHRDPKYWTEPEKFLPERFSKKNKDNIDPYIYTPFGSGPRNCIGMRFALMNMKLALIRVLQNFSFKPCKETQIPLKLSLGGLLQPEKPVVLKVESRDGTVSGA
# Assay Text: Cytochrome P450 activity inhibition, CYP3A4
# Format: in vitro ADME
# Condition Notes: 10 μM, human liver microsomes, Midazolam substrate
Record form. Attribute: CYP inhibition (% of control) 3A4. Fill in for each entry.

So for CC(C)N1CCC(c2ccc(/C(=C(/CCCO)c3ccccc3)c3cccc(O)c3)cc2)CC1 [Compound 22h] , the logged CYP inhibition (% of control) 3A4 turned out to be 72.2 % of control

The reported CYP inhibition (% of control) 3A4 of the molecule CC(C)N1CCN(c2ccc(/C(=C(/CCCO)c3ccccc3)c3ccc(Br)cc3)cc2)CC1 [Compound 18e] was 84 % of control

Per the record, CC(C)N1CCN(c2ccc(/C(=C(/CCCO)c3ccccc3)c3ccc(Br)cc3)cc2)CC1 [Compound 18h] has CYP inhibition (% of control) 3A4 of 64.5 % of control

// CYP inhibition (% of control) 3A4 lookup, molecule = Cc1ccc(/C(=C(\CCCO)c2ccccc2)c2ccc(N3CCN(C)CC3)cc2)cc1 [Compound 18f] , result: 70.9 % of control

The measured CYP inhibition (% of control) 3A4 associated with CC(C)N1CCC(c2ccc(/C(=C(/CCCO)c3ccccc3)c3ccc(O)cc3)cc2)CC1 [Compound 22k] reads 74.7 % of control

Kindly note the recorded CYP inhibition (% of control) 3A4 for OCCC/C(=C(\c1ccc(O)cc1)c1ccc(OCCN2C[C@H]3C[C@H]3[C@H]2CO)cc1)c1ccccc1 [Compound 38d] , which is 57.6 % of control

Recorded result, Cc1ccc(/C(=C(\CCCO)c2ccccc2)c2ccc(C3CN(C(C)C)C3)cc2)cc1 [Compound 22e] , CYP inhibition (% of control) 3A4: 58.2 % of control

Query Cc1ccc(/C(=C(\CCCO)c2ccccc2)c2ccc(N3CCN(C(C)C)CC3)cc2)cc1 [Compound 18b] yields CYP inhibition (% of control) 3A4 of 53 % of control

====

Provide the recorded CYP inhibition (% of control) 2C9 for the entries that follow.
# Tgt: CYP2C9 (Homo sapiens (Human))
# Sequence (P11712 whole entry): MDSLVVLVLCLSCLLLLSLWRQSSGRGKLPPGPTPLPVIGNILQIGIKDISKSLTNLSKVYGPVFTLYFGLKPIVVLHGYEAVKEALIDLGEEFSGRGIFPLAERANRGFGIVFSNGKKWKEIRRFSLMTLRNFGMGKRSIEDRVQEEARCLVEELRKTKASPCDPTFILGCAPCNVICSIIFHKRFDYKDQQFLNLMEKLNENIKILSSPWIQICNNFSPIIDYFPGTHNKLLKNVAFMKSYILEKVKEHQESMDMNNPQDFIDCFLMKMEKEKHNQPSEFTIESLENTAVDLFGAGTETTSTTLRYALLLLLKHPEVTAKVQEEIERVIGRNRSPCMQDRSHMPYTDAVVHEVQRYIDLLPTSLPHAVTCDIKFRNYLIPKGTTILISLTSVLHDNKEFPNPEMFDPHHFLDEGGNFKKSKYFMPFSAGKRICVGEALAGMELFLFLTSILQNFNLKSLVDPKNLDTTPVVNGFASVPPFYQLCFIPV
# Assay Text: Cytochrome P450 activity inhibition, CYP2C9
# Format: in vitro ADME
# Condition Notes: 10 μM, human liver microsomes, Diclofenac substrate

Simply: OCCC/C(=C(\c1ccc(O)cc1)c1ccc(C2=CCN(C3CC3)CC2)cc1)c1ccccc1 [Compound 22j] , CYP2C9 (Homo sapiens (Human)), CYP inhibition (% of control) 2C9 = 88 % of control

CYP2C9 (Homo sapiens (Human)) assay, compound CC(C)N1CCN(c2ccc(C(=C(CCCO)c3ccccc3)c3ccc(O)cc3)cc2)CC1 [Compound 18a] , recorded CYP inhibition (% of control) 2C9 = 86.1 % of control

The compound Cc1ccc(/C(=C(\CCCO)c2ccccc2)c2ccc(N3CCN(C(C)C)CC3)cc2)cc1 [Compound 18b] , tested on CYP2C9 (Homo sapiens (Human)), showed CYP inhibition (% of control) 2C9 of 73.4 % of control

CYP2C9 (Homo sapiens (Human)) CYP inhibition (% of control) 2C9 of OCCC/C(=C(\c1ccc(O)cc1)c1ccc(N2CCN(C3CCCC3)CC2)cc1)c1ccccc1 [Compound 22n] is 97.4 % of control

Known value: CYP2C9 (Homo sapiens (Human)) CYP inhibition (% of control) 2C9 of the compound OCCC/C(=C(\c1ccc(Br)cc1)c1ccc(N2CCNCC2)cc1)c1ccccc1 [Compound 20a] equals 76 % of control

CYP inhibition (% of control) 2C9 value, target or system CYP2C9 (Homo sapiens (Human)), for OCCC/C(=C(\c1ccc(O)cc1)c1ccc(OCCN2C[C@H]3C[C@H]3[C@H]2CO)cc1)c1ccccc1 [Compound 38d] : 55.3 % of control

Tested on CYP2C9 (Homo sapiens (Human)), the item OCCC/C(=C(/c1ccc(C2=CCN(C3CC3)CC2)cc1)c1cccc(O)c1)c1ccccc1 [Compound 22l] showed CYP inhibition (% of control) 2C9 equal to 88.3 % of control

Lab entry: CYP2C9 (Homo sapiens (Human)) assay, compound CC(C)(C)OC(=O)N1CC(c2ccc(/C(=C(/CCCO)c3ccccc3)c3ccc(O)cc3)cc2)C1 [Compound 18t] , CYP inhibition (% of control) 2C9 = 83 % of control

====

# Assay Text: in vivo
# Format: in vivo
# Condition Notes: rat, PO, 10 mg/kg
Assay Metric: Tmax

For OCCC/C(=C(/c1ccc(C2CCN(C3CC3)CC2)cc1)c1cccc(O)c1)c1ccccc1 [Compound 22r] the compound record lists Tmax as 1 h

Entry CC(C)N1CCC(c2ccc(/C(=C(/CCCO)c3ccccc3)c3ccc(O)cc3)cc2)C1 (racemic) [Compound 22s] — recorded Tmax = 1.3 h

Query Cc1ccc(/C(=C(\CCCO)c2ccccc2)c2ccc(N3CCN(C)CC3)cc2)cc1 [Compound 18f] yields Tmax of 2.4 h

The recorded Tmax for CC(C)N1CCN(c2ccc(/C(=C(/CCCO)c3ccccc3)c3ccc(Br)cc3)cc2)CC1 [Compound 18e] is 2.8 h

Entry under test: CCN1CCN(c2ccc(/C(=C(/CCCO)c3ccccc3)c3ccc(C)cc3)cc2)CC1 [Compound 18j] . Its Tmax was 3 h

====

# Assay Text: in vivo
# Assay type: in vivo
# Condition Notes: rat, PO, 10 mg/kg
Assay Metric: BA (%)
Give the value in % but do not write % after it.

Measured BA of Cc1ccc(/C(=C(\CCCO)c2ccccc2)c2ccc(N3CCN(C)CC3)cc2)cc1 [Compound 18f] : 41.2

Measured BA, CC(C)N1CCN(c2ccc(C(=C(CCCO)c3ccccc3)c3ccc(O)cc3)cc2)CC1 [Compound 18a] : 21.4

BA in this record for CCN1CCN(c2ccc(/C(=C(/CCCO)c3ccccc3)c3ccc(C)cc3)cc2)CC1 [Compound 18j] : 19.6

Memo: OCCC/C(=C(\c1ccc(O)cc1)c1ccc(C2CCN(C3CC3)CC2)cc1)c1ccccc1 [Compound 22i] , reported BA: 45.3

Sample CC(C)N1CCC(c2ccc(/C(=C(/CCCO)c3ccccc3)c3cccc(O)c3)cc2)CC1 [Compound 22m] ; BA observed: 24.3

BA reported for this compound CC(C)N1CCN(c2ccc(/C(=C(/CCCO)c3ccccc3)c3ccc(Br)cc3)cc2)CC1 [Compound 18e] : 11.5

Item: CC(C)N1CCC(c2ccc(/C(=C(/CCCO)c3ccccc3)c3ccc(O)cc3)cc2)C1 (racemic) [Compound 22s] | BA: 18.5

The recorded BA for Cc1ccc(/C(=C(\CCCO)c2ccccc2)c2ccc(N3CCN(C(C)C)CC3)cc2)cc1 [Compound 18b] is 8.7

BA for OCCC/C(=C(/c1ccc(C2CCN(C3CC3)CC2)cc1)c1cccc(O)c1)c1ccccc1 [Compound 22r] is 58.2

// BA value for CN(C)CCOc1ccc(/C(=C(/CCCO)c2ccccc2)c2ccc(O)cc2)cc1 [GSK5182, reference compound] : 8.4
